Please provide measured viability, T/C for the entries that follow.
Tested on: 168753-222-R-J1-PDC complex spheroid viability
PROCEDURE_TEXT: Anticancer human tumor 168753-222-R-J1-PDC patient-derived bladder carcinoma cell line growth inhibition [CLK]
RUN_PARAMETERS: second compound 0.316 µM; first compound 1 µM; stronger effect = lower value
Give just the number in %; leave the unit off.

Problem: # viability, T/C lookup, item COc1c(OCCCN2CCOCC2)ccc2c3n(c(=NC(=O)c4cnc(N)nc4)nc12)CCN3 + CN1CCN(c2cc(C(=O)Nc3cc4cc(-c5cnn(C)c5)ccc4cn3)ccn2)CC1
Solution: 1.84

Problem: # viability, T/C lookup, item C=C(F)C(=O)N1CCN(c2nc(OCC3CCCN3C)nc3c2CCN(c2cccc4cccc(Cl)c24)C3)CC1CC#N (centres undefined) + CN1CCN(c2cc(C(=O)Nc3cc4cc(-c5cnn(C)c5)ccc4cn3)ccn2)CC1
Solution: 8.4

Problem: # viability, T/C lookup, item CC1COCCN1c1cc(C2(S(C)(=N)=O)CC2)nc(-c2ccnc3[nH]ccc23)n1 (centres undefined) + CNC(=O)c1ccc(Nc2nc(OC3CCCC3)c3c(-c4ccc5nc(C)oc5c4)c[nH]c3n2)c(OC)c1
Solution: 58.2

Problem: # viability, T/C lookup, item CCc1c2c(nc3ccc(O)cc13)-c1cc3c(c(=O)n1C2)COC(=O)[C@]3(O)CC + CN1CCN(c2cc(C(=O)Nc3cc4cc(-c5cnn(C)c5)ccc4cn3)ccn2)CC1
Solution: 0.99

---

Test system: 168753-222-R-J1-PDC complex spheroid viability
PROCEDURE_TEXT: Anticancer human tumor 168753-222-R-J1-PDC cell line growth inhibition [CLK];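 note: viability measured after seven days of drug exposure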;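 for viability, T/C: luminescence signal used as surrogate for viable cell amount; 100% = DMSO vehicle control wells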
RUN_PARAMETERS: second compound 0.1 µM; first compound 0.0316 µM; stronger effect = lower value
ENDPOINT_NAME: viability, T/C

Problem: # viability, T/C lookup, item Cn1ncnc1[C@H]1c2n[nH]c(=O)c3cc(F)cc(c23)N[C@@H]1c1ccc(F)cc1 + CNC(=O)c1ccc(Nc2nc(OC3CCCC3)c3c(-c4ccc5nc(C)oc5c4)c[nH]c3n2)c(OC)c1
Solution: 103%

Problem: # viability, T/C lookup, item O=C(c1cc(Cc2n[nH]c(=O)c3ccccc23)ccc1F)N1CCN(C(=O)C2CC2)CC1 + CNC(=O)c1ccc(Nc2nc(OC3CCCC3)c3c(-c4ccc5nc(C)oc5c4)c[nH]c3n2)c(OC)c1
Solution: 92.3%

Problem: # viability, T/C lookup, item C=CC(=O)N1CCN(c2nc(=O)n(-c3c(C)ccnc3C(C)C)c3nc(-c4c(O)cccc4F)c(F)cc23)C(C)C1 (stereo not given) + CN1CCN(c2cc(C(=O)Nc3cc4cc(-c5cnn(C)c5)ccc4cn3)ccn2)CC1
Solution: 79.4%

Problem: # viability, T/C lookup, item CC(Nc1ccc2c(c1)OCCn1cc(N3C(=O)OCC3C(F)F)nc1-2)C(N)=O (stereo not given) + CN1CCN(c2cc(C(=O)Nc3cc4cc(-c5cnn(C)c5)ccc4cn3)ccn2)CC1
Solution: 41.8%

Problem: # viability, T/C lookup, item C#Cc1c(F)ccc2cc(O)cc(-c3ncc4c(N5CC6CCC(C5)N6)nc(OCC56CCCN5CC(F)C6)nc4c3F)c12 (stereo not given) + CNC(=O)c1ccc(Nc2nc(OC3CCCC3)c3c(-c4ccc5nc(C)oc5c4)c[nH]c3n2)c(OC)c1
Solution: 99.1%

---

Test system: 168753-222-R-J1-PDC complex spheroid viability
PROCEDURE_TEXT: Anticancer human tumor 168753-222-R-J1-PDC cell line growth inhibition [CLK];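 note: viability measured after seven days of drug exposure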;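 for viability, T/C: luminescence signal used as surrogate for viable cell amount; 100% = DMSO vehicle control wells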
RUN_PARAMETERS: second compound 0.1 µM; first compound 1 µM; stronger effect = lower value
ENDPOINT_NAME: viability, T/C

Problem: # viability, T/C lookup, item COc1cccc2c1C(=O)c1c(O)c3c(c(O)c1C2=O)CC(O)(C(=O)CO)CC3OC1CC(N)C(O)C(C)O1 (stereo not drawn) + CNC(=O)c1ccc(Nc2nc(OC3CCCC3)c3c(-c4ccc5nc(C)oc5c4)c[nH]c3n2)c(OC)c1
Solution: 14.9%

Problem: # viability, T/C lookup, item Nc1ccn(C2OC(CO)C(O)C2(F)F)c(=O)n1 (stereo not drawn) + CN1CCN(c2cc(C(=O)Nc3cc4cc(-c5cnn(C)c5)ccc4cn3)ccn2)CC1
Solution: 11.6%

Problem: # viability, T/C lookup, item CC(Nc1ccc2c(c1)OCCn1cc(N3C(=O)OCC3C(F)F)nc1-2)C(N)=O (stereo not drawn) + CNC(=O)c1ccc(Nc2nc(OC3CCCC3)c3c(-c4ccc5nc(C)oc5c4)c[nH]c3n2)c(OC)c1
Solution: 14.3%

---

System: 168753-222-R-J1-PDC complex spheroid viability
PROCEDURE_TEXT: Anticancer human tumor 168753-222-R-J1-PDC cell line growth inhibition [CLK];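 note: viability measured after seven days of drug exposure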
RUN_PARAMETERS: curve of first compound; second compound 0.316 µM
pIC50: −log10 of the molar value.
ENDPOINT_NAME: pIC50

Problem: # pIC50 lookup, item CCCS(=O)(=O)Nc1ccc(F)c(C(=O)c2c[nH]c3ncc(-c4ccc(Cl)cc4)cc23)c1F + CN1CCN(c2cc(C(=O)Nc3cc4cc(-c5cnn(C)c5)ccc4cn3)ccn2)CC1
Solution: > 7.50

Problem: # pIC50 lookup, item O=c1[nH]cc(F)c(=O)[nH]1 + CNC(=O)c1ccc(Nc2nc(OC3CCCC3)c3c(-c4ccc5nc(C)oc5c4)c[nH]c3n2)c(OC)c1
Solution: < 5.00

Problem: # pIC50 lookup, item CCN1CCN(Cc2ccc(Nc3ncc(F)c(-c4cc(F)c5nc(C)n(C(C)C)c5c4)n3)nc2)CC1 + CN1CCN(c2cc(C(=O)Nc3cc4cc(-c5cnn(C)c5)ccc4cn3)ccn2)CC1
Solution: > 8.50

---

Tested on: 168753-222-R-J1-PDC complex spheroid viability
PROCEDURE_TEXT: Anticancer human tumor 168753-222-R-J1-PDC cell line growth inhibition [CLK]; active = viability on the fitted dose curve at most 10% of control; inactive = the rest;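 note: viability measured after seven days of drug exposure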
RUN_PARAMETERS: second compound 0.316 µM; first compound 0.316 µM
The reply should name one outcome from label 1 for active, label 0 for inactive

Problem: For this compound, state the assay outcome: CCc1c2c(nc3ccc(O)cc13)-c1cc3c(c(=O)n1C2)COC(=O)[C@]3(O)CC + CN1CCN(c2cc(C(=O)Nc3cc4cc(-c5cnn(C)c5)ccc4cn3)ccn2)CC1
Solution: label 1

Problem: For this compound, state the assay outcome: C=CC(=O)N1CCN(c2nc(=O)n(-c3c(C)ccnc3C(C)C)c3nc(-c4c(O)cccc4F)c(F)cc23)C(C)C1 (stereo unspecified) + CN1CCN(c2cc(C(=O)Nc3cc4cc(-c5cnn(C)c5)ccc4cn3)ccn2)CC1
Solution: label 0

Problem: For this compound, state the assay outcome: CCN1CCN(Cc2ccc(Nc3ncc(F)c(-c4cc(F)c5nc(C)n(C(C)C)c5c4)n3)nc2)CC1 + CNC(=O)c1ccc(Nc2nc(OC3CCCC3)c3c(-c4ccc5nc(C)oc5c4)c[nH]c3n2)c(OC)c1
Solution: label 0

Problem: For this compound, state the assay outcome: C=C(F)C(=O)N1CCN(c2nc(OCC3CCCN3C)nc3c2CCN(c2cccc4cccc(Cl)c24)C3)CC1CC#N (stereo unspecified) + CN1CCN(c2cc(C(=O)Nc3cc4cc(-c5cnn(C)c5)ccc4cn3)ccn2)CC1
Solution: label 0

Problem: For this compound, state the assay outcome: Nc1ccn(C2OC(CO)C(O)C2(F)F)c(=O)n1 (stereo unspecified) + CNC(=O)c1ccc(Nc2nc(OC3CCCC3)c3c(-c4ccc5nc(C)oc5c4)c[nH]c3n2)c(OC)c1
Solution: label 0

Problem: For this compound, state the assay outcome: C#Cc1c(F)ccc2cc(O)cc(-c3ncc4c(N5CC6CCC(C5)N6)nc(OCC56CCCN5CC(F)C6)nc4c3F)c12 (stereo unspecified) + CN1CCN(c2cc(C(=O)Nc3cc4cc(-c5cnn(C)c5)ccc4cn3)ccn2)CC1
Solution: label 0

Problem: For this compound, state the assay outcome: CCCS(=O)(=O)Nc1ccc(F)c(C(=O)c2c[nH]c3ncc(-c4ccc(Cl)cc4)cc23)c1F + CNC(=O)c1ccc(Nc2nc(OC3CCCC3)c3c(-c4ccc5nc(C)oc5c4)c[nH]c3n2)c(OC)c1
Solution: label 0

Problem: For this compound, state the assay outcome: CC1(C)CCC(CN2CCN(c3ccc(C(=O)NS(=O)(=O)c4ccc(NCC5CCOCC5)c([N+](=O)[O-])c4)c(Oc4cnc5[nH]ccc5c4)c3)CC2)=C(c2ccc(Cl)cc2)C1 + CNC(=O)c1ccc(Nc2nc(OC3CCCC3)c3c(-c4ccc5nc(C)oc5c4)c[nH]c3n2)c(OC)c1
Solution: label 0

Problem: For this compound, state the assay outcome: COc1ccc([C@@H](O)c2cc(-c3ncnc4cc(N5CCOCC5)ccc34)c(F)cc2Cl)nn1 + CNC(=O)c1ccc(Nc2nc(OC3CCCC3)c3c(-c4ccc5nc(C)oc5c4)c[nH]c3n2)c(OC)c1
Solution: label 0

Problem: For this compound, state the assay outcome: COc1cccc2c1C(=O)c1c(O)c3c(c(O)c1C2=O)CC(O)(C(=O)CO)CC3OC1CC(N)C(O)C(C)O1 (stereo unspecified) + CN1CCN(c2cc(C(=O)Nc3cc4cc(-c5cnn(C)c5)ccc4cn3)ccn2)CC1
Solution: label 1

Problem: For this compound, state the assay outcome: CC1COCCN1c1cc(C2(S(C)(=N)=O)CC2)nc(-c2ccnc3[nH]ccc23)n1 (stereo unspecified) + CN1CCN(c2cc(C(=O)Nc3cc4cc(-c5cnn(C)c5)ccc4cn3)ccn2)CC1
Solution: label 1
